Listed here: items and their measured TGI.
- Tested on: DMS 114 small cell lung
- Measurement Description: NCI tumour cell line growth inhibition, 48 h
Observed Property: TGI

Compound: CC(C)CCC[C@@H](C)C1CCC2[C@@H]3CC=C4C[C@@H](C(=O)NCCN(C)C)CC[C@]4(C)C3CC[C@@]21C (stereo not given in full)
Endpoint Value: 38.1 µM

Compound: CN(C(=O)c1ccc([N+](=O)[O-])cc1)c1ccccc1
Endpoint Value: > 10 µM

Compound: COc1cccc(/C=N/[N-]C(=O)c2ccncc2)c1[O-].COc1cccc(/C=N/[N-]C(=O)c2ccncc2)c1[O-].[O]=[U](=[O])([OH2+])[OH2+]
Endpoint Value: 12.5 µM

Compound: CO[C@H]1Nc2c(ccc(C)c2O)C(=O)N2C=C(/C=C/C(N)=O)C[C@@H]12
Endpoint Value: 0.044 µM

Compound: COC(=O)/C([Se]c1c(C)cc(C)cc1C)=C(/[Se]c1c(C)cc(C)cc1C)C(=O)OC
Endpoint Value: > 100 µM

====

- Tested on: SK-MEL-5 melanoma
- Measurement Description: NCI tumour cell line growth inhibition, 48 h
Observed Property: TGI (µM)

Molecule: Cc1ccc(OCCOCCOCCOCCOc2ccc(C)n(O)c2=S)c(=S)n1O
Censoring Sign: =
Endpoint Value: 11.3
//
Molecule: O=C(Nc1cc(Cl)ccc1O)c1ccc(Nc2ccnc(C(F)(F)F)c2)cc1
Censoring Sign: =
Endpoint Value: 4.95
//
Molecule: CN(Cc1ccccc1)c1cc(=O)n(C)c(=O)[nH]1
Censoring Sign: >
Endpoint Value: 100
//
Molecule: CCCCNC(=S)N/N=C/c1cccc(C)n1
Censoring Sign: >
Endpoint Value: 100
//
Molecule: COc1cccc(/C=N/[N-]C(=O)c2ccncc2)c1[O-].COc1cccc(/C=N/[N-]C(=O)c2ccncc2)c1[O-].[O]=[U](=[O])([OH2+])[OH2+]
Censoring Sign: >
Endpoint Value: 100
//
Molecule: CCOC(=O)C1(C(=O)OCC)COS(=O)OC1
Censoring Sign: >
Endpoint Value: 100
//
Molecule: Cc1cn(-c2cc(C(=O)Nc3cccc(-n4ccc5c(NC(=O)c6ccccc6)nccc54)c3)cc(C(F)(F)F)c2)cn1
Censoring Sign: =
Endpoint Value: 0.76
//
Molecule: CCC1CN2CCc3cc(OC)c(OC)cc3C2CC1CC1c2cc(OC)c(OC)cc2CCN1C(=O)C1CCCN1 (stereo unspecified)
Censoring Sign: =
Endpoint Value: 31.3
//
Molecule: N[C@H](CCC(=O)N[C@@H](Cc1c[nH]c2ccccc12)C(=O)O)C(=O)O
Censoring Sign: >
Endpoint Value: 100
//
Molecule: CC(=O)N1CCN(c2ccc(OCC3COC(Cn4ccnc4)(c4ccc(Cl)cc4Cl)O3)cc2)CC1 (stereo unspecified)
Censoring Sign: =
Endpoint Value: 24.9
//
Molecule: C#CCOc1cccc(Nc2ncnc3c(NC(=O)C=C)cccc23)c1
Censoring Sign: =
Endpoint Value: 33.1
//
Molecule: CC(O)CCCOC(c1ccccc1)(c1ccccc1)c1ccccc1 (stereo unspecified)
Censoring Sign: =
Endpoint Value: 16.6
//
Molecule: CC(C)=C1CCC(CN(C)C)C1=O (stereo unspecified)
Censoring Sign: =
Endpoint Value: 32.9
//
Molecule: CN(C)CCNCCN
Censoring Sign: >
Endpoint Value: 100
//
Molecule: S=c1[nH]c2ccc(Br)cc2c(=S)s1
Censoring Sign: =
Endpoint Value: 37.8
//
Molecule: CCC1=NC(C(F)(F)F)(C(F)(F)F)N=C(N2CCOCC2)O1
Censoring Sign: >
Endpoint Value: 100
//
Molecule: CC12CCC3C(CCC4CC(OC(=O)Cc5ccc(N(CCCl)CCCl)cc5)CCC43C)C1CCC(=O)N2 (stereo unspecified)
Censoring Sign: =
Endpoint Value: 33.3
//
Molecule: O=C(Nc1ccccc1F)c1cc2ccc(O)cc2oc1=Nc1ccccc1F
Censoring Sign: =
Endpoint Value: 3.85
//
Molecule: O=C(O)c1cccc(COc2ccc([N+](=O)[O-])cc2Cl)c1
Censoring Sign: >
Endpoint Value: 100
//
Molecule: Cc1ccc(C)c(N2C/C(=N\NC(=O)CC#N)C(c3nc4ccccc4s3)C(=O)C2=O)c1 (stereo unspecified)
Censoring Sign: >
Endpoint Value: 100
//
Molecule: COC(=O)CN1c2nc(C#N)c(C#N)nc2N(CC(=O)OC)c2nc(C#N)c(C#N)nc21
Censoring Sign: >
Endpoint Value: 53.8
//
Molecule: Nc1ccccc1C(=O)/C=C/c1c(O)ccc2ccccc12
Censoring Sign: >
Endpoint Value: 100
//
Molecule: NNC1=N/C(=C\c2ccco2)C(Cl)=N1
Censoring Sign: >
Endpoint Value: 100
//
Molecule: Cc1ccc(CC[P+](=O)CCc2ccc(C)nc2)cn1
Censoring Sign: >
Endpoint Value: 100
//
Molecule: CO[C@H]1Nc2c(ccc(C)c2O)C(=O)N2C=C(/C=C/C(N)=O)C[C@@H]12
Censoring Sign: =
Endpoint Value: 0.0308
//
Molecule: CC(=O)OCC1OC(n2cc(I)c(=O)[nH]c2=O)C(OC(C)=O)C(OC(C)=O)C1OC(C)=O (stereo unspecified)
Censoring Sign: >
Endpoint Value: 100
//
Molecule: O=C(Cc1nc2c3c(ccc2[nH]c1=O)C(=O)c1ccccc1C3=O)C(=O)Nc1ccccc1[N+](=O)[O-]
Censoring Sign: =
Endpoint Value: 37.3
//
Molecule: ClC(Cl)=C1C(=C(Cl)Cl)C(Cl)(Cl)C1(Cl)Cl
Censoring Sign: =
Endpoint Value: 9.98
//
Molecule: CCOCN1COCN(C)C1=O
Censoring Sign: >
Endpoint Value: 100
//
Molecule: O=C(Nc1cc(Nc2ncccc2-c2ncnc3nc[nH]c23)ccc1F)c1cc(C(F)(F)F)cc(C(F)(F)F)c1
Censoring Sign: =
Endpoint Value: 2.76
//
Molecule: CCCc1cc(=O)n2c(C(=O)Nc3ccc(Cl)cc3C)c(C(=O)Nc3ccc(F)cc3)sc2n1
Censoring Sign: >
Endpoint Value: 150
//
Molecule: COc1cc(/C=C\c2cc(OC)c(OC)c(OC)c2)cc(N/C=C\C(=O)c2c[nH]c3ccccc23)c1OC
Censoring Sign: =
Endpoint Value: 12.6
//
Molecule: NCCNCC1CCNCC1
Censoring Sign: >
Endpoint Value: 100
//
Molecule: Nc1c(-c2ccccc2-c2c(N)[n+]([O-])c3ccccc3[n+]2[O-])[n+]([O-])c2ccccc2[n+]1[O-]
Censoring Sign: =
Endpoint Value: 31
//
Molecule: O=C(CC(=O)C1CCOC1=O)C(=O)Nc1cccc(Cl)c1 (stereo unspecified)
Censoring Sign: >
Endpoint Value: 100
//
Molecule: O=C1NCC(NC(=O)C(F)(F)F)c2c(Br)sc(Br)c21 (stereo unspecified)
Censoring Sign: >
Endpoint Value: 100

====

Listed here: items and their measured TGI.
- Test system: DMS 273 small cell lung
- Measurement Description: NCI tumour cell line growth inhibition, 48 h

Chemical String: CSC(=Nc1ccccc1)N(c1ccccc1)c1nc(=[N+](C)C)ss1
Censoring Sign: =
TGI, nM: 2200
--
Chemical String: Nc1nc(-c2ccc(Cl)c([N+](=O)[O-])c2)cs1
Censoring Sign: >
TGI, nM: 100000
--
Chemical String: CO[C@H]1Nc2c(ccc(C)c2O)C(=O)N2C=C(/C=C/C(N)=O)C[C@@H]12
Censoring Sign: =
TGI, nM: 118
--
Chemical String: CCC1=CC2CN3Cn4c(c(COCc5c6n(c7ccccc57)CN5CC7C=C(CC)C5C6(C(=O)OC)C7)c5ccccc54)C(C(=O)OC)(C2)C13
Censoring Sign: >
TGI, nM: 100000

====

- Test system: BT-549 breast
- Measurement Description: NCI tumour cell line growth inhibition, 48 h
Observed Property: log10 of TGI (log10 of the value in µM)

Compound: ClC(Cl)=C1C(=C(Cl)Cl)C(Cl)(Cl)C1(Cl)Cl
Endpoint Value: 1.13
//
Compound: COC(C)(C)[C@@H](O)[C@H]1C[C@H](C)[C@@]2(CC[C@]3(C)[C@@H]2CC[C@@H]2[C@@]4(C)CC[C@@H](OC(C)=O)C(C)(C)[C@@H]4C[C@@H](OC4OC(COC(C)=O)C(O)C(O)C4O)[C@]23C)O1 (stereo not given in full)
Endpoint Value: 1.18
//
Compound: C(/C=C(\Nc1ccccc1)C12CC3CC(CC(C3)C1)C2)=Nc1ccccc1
Endpoint Value: 1.50
//
Compound: COc1ccc(/C(C)=C(\c2ccc(OCCN3CCCCCC3)cc2)c2ccc(OC(=O)C3CCCCC3)cc2)cc1
Endpoint Value: 0.53
//
Compound: Cc1cc(-c2nc3ccccc3s2)ccc1NC(=O)[C@@H](N)CCCCN
Endpoint Value: 1.38
//
Compound: Cn1cc(-c2csc(-c3cn(CCCCN4CCCCC4)c4ccccc34)n2)c2cccnc21
Endpoint Value: 0.53
//
Compound: ClCCN(CCCl)c1ccc(CNc2ccccc2)cc1
Endpoint Value: 1.63
//
Compound: N/C(=N\S(=O)(=O)c1c(C(F)(F)F)cccc1C(F)(F)F)Nc1ccc(Cl)cc1
Endpoint Value: 1.98

Where do these numbers come from? They come from PubChem BioAssay (NCI).
